# experiment.description: acute oral toxicity (LD50, method of Miller and Tainter)
# measurement.parameters: in vivo, mouse about 20 g, read-out: DL 50 voie orale
property.measured: LD50 (mg/kg)
Answers are plain numbers, in mg/kg.

1) CC(/C=C/c1ccc(-c2ccccc2Cl)cc1)C(=O)O (stereo not drawn): 750
2) CC(/C=C/c1ccc(-c2ccccc2)cc1)C(=O)O (stereo not drawn): 500

Query block: Value lookup for LD50; key = CC(/C=C/c1ccc(-c2ccccc2F)cc1)C(=O)O (stereo not drawn)
Result block: 1000
